- Test system: ADP induced platelet aggregation
- assay-text: Inhibition of ADP-induced platelet aggregation (procedure of Born and Cross)
- Type: cell-based
- details: read-out: Inhibition of Platelet Aggregation 10 ug/ml
property: inhibition at 10 µg/mL (%)

[[record]]
compound = "O=c1cc(-c2ccc(F)cc2)oc(N2CCOCC2)c1 [Compound 22]"
property = "inhibition at 10 µg/mL"
measured_result = 42

[[record]]
compound = "Nc1ccc(-c2cc(=O)cc(N3CCOCC3)o2)cc1 [Compound 25]"
property = "inhibition at 10 µg/mL"
measured_result = 45

[[record]]
compound = "CC(C)(C)C(=O)COc1ccc(-c2cc(=O)cc(N3CCOCC3)o2)cc1 [Compound 4]"
property = "inhibition at 10 µg/mL"
measured_result = 45

[[record]]
compound = "O=c1cc(-c2ccc(OCc3ccccn3)cc2)oc(N2CCOCC2)c1 [Compound 6]"
property = "inhibition at 10 µg/mL"
measured_result = 25

[[record]]
compound = "O=c1cc(-c2ccc(OCc3ccc4ccccc4n3)cc2)oc(N2CCOCC2)c1 [Compound 8]"
property = "inhibition at 10 µg/mL"
measured_result = 35

[[record]]
compound = "O=c1cc(-c2ccc(CN3CCCCC3CO)cc2)oc(N2CCOCC2)c1 (stereo not drawn) [Compound 21]"
property = "inhibition at 10 µg/mL"
measured_result = 10

[[record]]
compound = "O=c1cc(-c2ccccc2OCc2ccccc2)oc(N2CCOCC2)c1 [Compound 9]"
property = "inhibition at 10 µg/mL"
measured_result = 60

[[record]]
compound = "CN1CCN(Cc2ccc(-c3cc(=O)cc(N4CCOCC4)o3)cc2)CC1 [Compound 20]"
property = "inhibition at 10 µg/mL"
measured_result = 0

[[record]]
compound = "O=c1cc(-c2ccc(N3CCCCC3)cc2)oc(N2CCOCC2)c1 [Compound 24]"
property = "inhibition at 10 µg/mL"
measured_result = 10

[[record]]
compound = "O=c1cc(-c2cccc(OCc3ccccc3)c2)oc(N2CCOCC2)c1 [Compound 15]"
property = "inhibition at 10 µg/mL"
measured_result = 0

[[record]]
compound = "O=c1cc(-c2ccc(CN3CCCC3)cc2)oc(N2CCOCC2)c1 [Compound 19]"
property = "inhibition at 10 µg/mL"
measured_result = 5

[[record]]
compound = "O=c1cc(CN2CCOCC2)oc(-c2ccc(O)cc2)c1 [Compound 14]"
property = "inhibition at 10 µg/mL"
measured_result = 0

[[record]]
compound = "O=c1cc(-c2ccccc2)oc(N2CCOCC2)c1 [Compound 3]"
property = "inhibition at 10 µg/mL"
measured_result = 45

[[record]]
compound = "O=c1cc(-c2ccc(OCc3cccnc3)cc2)oc(N2CCOCC2)c1 [Compound 5]"
property = "inhibition at 10 µg/mL"
measured_result = 40

[[record]]
compound = "O=c1cc(-c2ccc(N3CCCC3)cc2)oc(N2CCOCC2)c1 [Compound 23]"
property = "inhibition at 10 µg/mL"
measured_result = 20

[[record]]
compound = "O=c1cc(-c2ccc(OCc3ccccc3)cc2)oc(N2CCOCC2)c1 [Compound 2]"
property = "inhibition at 10 µg/mL"
measured_result = 10

[[record]]
compound = "O=c1cc(-c2ccc(OCCN3CCCCC3)cc2)oc(N2CCOCC2)c1 [Compound 7]"
property = "inhibition at 10 µg/mL"
measured_result = 60

[[record]]
compound = "O=c1cc(-c2ccc(CO)cc2)oc(N2CCOCC2)c1 [Compound 17]"
property = "inhibition at 10 µg/mL"
measured_result = 0

[[record]]
compound = "O=c1cc(-c2cccc(O)c2)oc(N2CCOCC2)c1 [Compound 16]"
property = "inhibition at 10 µg/mL"
measured_result = 5

[[record]]
compound = "O=c1cc(CN2CCOCC2)oc(-c2ccc(OCc3ccccc3)cc2)c1 [Compound 12]"
property = "inhibition at 10 µg/mL"
measured_result = 0

[[record]]
compound = "O=c1cc(-c2ccc(O)cc2)oc(N2CCOCC2)c1 [Compound 1]"
property = "inhibition at 10 µg/mL"
measured_result = 75

[[record]]
compound = "O=c1cc(-c2ccc(CN3CCCCC3)cc2)oc(N2CCOCC2)c1 [Compound 18]"
property = "inhibition at 10 µg/mL"
measured_result = 10

[[record]]
compound = "O=c1cc(CN2CCCCC2)oc(-c2ccc(OCc3ccccc3)cc2)c1 [Compound 13]"
property = "inhibition at 10 µg/mL"
measured_result = 0

[[record]]
compound = "CCCCC(Oc1ccc(-c2cc(=O)cc(N3CCOCC3)o2)cc1)c1ccccc1 (stereo not drawn) [Compound 11]"
property = "inhibition at 10 µg/mL"
measured_result = 10

